- METHOD DESCRIPTION: Metabolic stability in human liver microsomes assessed as intrinsic clearance
- Type: ADME, Microsome
- CONDITION CONTEXT: microsomes
PROPERTY LABEL: microsomal intrinsic clearance (µL/min/mg)

CCCC1(O)CN(C(=O)O[C@@H]2CCC[C@]3(C2)OOC2(O3)C3CC4CC(C3)CC2C4)C1 (stereo not given in full) : 579
NC1(CNC(=O)O[C@H]2CCC[C@@]3(C2)OOC2(O3)C3CC4CC(C3)CC2C4)CC1 (stereo not given in full) : 37.4
N[C@@H]1CCCN(C(=O)O[C@H]2CCC[C@@]3(C2)OOC2(O3)C3CC4CC(C3)CC2C4)C1 (stereo not given in full) : 52.7
O=C(NCC1(O)COC1)O[C@H]1CCC[C@@]2(C1)OOC1(O2)C2CC3CC(C2)CC1C3 (stereo not given in full) : 333
N=S(=O)(CCNC(=O)O[C@H]1CCC[C@@]2(C1)OOC1(O2)C2CC3CC(C2)CC1C3)C1CC1 (stereo not given in full) : 450

###

- METHOD DESCRIPTION: Solubility of the compound in PBS buffer at pH 7.4
- Type: physicochemical
PROPERTY LABEL: solubility kinetic

O=C(O[C@@H]1CCC[C@]2(C1)OOC1(O2)C2CC3CC(C2)CC1C3)N1CC(O)(C(F)(F)F)C1 (stereo partly drawn) : 24.8 µM
NC1(CNC(=O)O[C@@H]2CCC[C@]3(C2)OOC2(O3)C3CC4CC(C3)CC2C4)CCCC1 (stereo partly drawn) : 162 µM
NC1(CNC(=O)O[C@@H]2CCC[C@]3(C2)OOC2(O3)C3CC4CC(C3)CC2C4)CCC1 (stereo partly drawn) : 142 µM
NC1CN(C(=O)O[C@H]2CCC[C@@]3(C2)OOC2(O3)C3CC4CC(C3)CC2C4)C1 (stereo partly drawn) : 101 µM
NC1CCN(C(=O)O[C@H]2CCC[C@@]3(C2)OOC2(O3)C3CC4CC(C3)CC2C4)CC1 (stereo partly drawn) : 118 µM
N[C@@H]1CCN(C(=O)O[C@@H]2CCC[C@]3(C2)OOC2(O3)C3CC4CC(C3)CC2C4)C1 (stereo partly drawn) : 167 µM
CCC1(O)CN(C(=O)O[C@H]2CCC[C@@]3(C2)OOC2(O3)C3CC4CC(C3)CC2C4)C1 (stereo partly drawn) : 41.5 µM
O=C(NCC1(O)COC1)O[C@H]1CCC[C@@]2(C1)OOC1(O2)C2CC3CC(C2)CC1C3 (stereo partly drawn) : 112 µM

###

- METHOD DESCRIPTION: Metabolic stability in human liver microsomes assessed as intrinsic clearance
- Format: ADME, Microsome
- CONDITION CONTEXT: microsomes
PROPERTY LABEL: microsomal intrinsic clearance (µL/min/mg)

N[C@@H]1CCN(C(=O)O[C@@H]2CCC[C@]3(C2)OOC2(O3)C3CC4CC(C3)CC2C4)C1 (stereo partly drawn) : 45.8
CS(=O)(=O)C1CN(C(=O)O[C@H]2CCC[C@@]3(C2)OOC2(O3)C3CC4CC(C3)CC2C4)C1 (stereo partly drawn) : 851
CS(=O)(=O)C1CN(C(=O)O[C@@H]2CCC[C@]3(C2)OOC2(O3)C3CC4CC(C3)CC2C4)C1 (stereo partly drawn) : 526

Values from ChEMBL document CHEMBL6071188
